# target-under-test: T1, soluble KDR extracellular domain (ECD) (Calbiochem) (human, UniProt P35968 20-764)
# T1 construct: extracellular domain; Bought protein; also called KDR-ECD; VEGF Receptor 2 D1-7, Cat. #676490
# T1 sequence (P35968 20-764): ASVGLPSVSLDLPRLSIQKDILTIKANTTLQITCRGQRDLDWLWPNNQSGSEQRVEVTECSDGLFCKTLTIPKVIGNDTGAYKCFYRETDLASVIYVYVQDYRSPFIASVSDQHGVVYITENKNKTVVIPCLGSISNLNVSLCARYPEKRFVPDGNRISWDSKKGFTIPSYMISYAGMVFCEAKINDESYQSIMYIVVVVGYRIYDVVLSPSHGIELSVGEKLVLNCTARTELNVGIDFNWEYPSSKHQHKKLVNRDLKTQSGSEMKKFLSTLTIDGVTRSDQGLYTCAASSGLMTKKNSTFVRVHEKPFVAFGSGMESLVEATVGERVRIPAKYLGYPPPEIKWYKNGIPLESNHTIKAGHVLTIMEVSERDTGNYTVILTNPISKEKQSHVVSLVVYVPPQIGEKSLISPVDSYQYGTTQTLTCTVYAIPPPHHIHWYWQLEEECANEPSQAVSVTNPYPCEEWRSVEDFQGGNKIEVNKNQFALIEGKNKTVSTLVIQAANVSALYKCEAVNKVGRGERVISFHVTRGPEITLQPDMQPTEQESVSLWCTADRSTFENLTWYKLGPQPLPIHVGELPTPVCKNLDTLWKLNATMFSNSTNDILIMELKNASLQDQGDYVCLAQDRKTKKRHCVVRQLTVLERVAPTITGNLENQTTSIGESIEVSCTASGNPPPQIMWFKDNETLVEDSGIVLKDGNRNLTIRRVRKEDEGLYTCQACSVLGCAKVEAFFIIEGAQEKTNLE
# assay-remarks: Limited Antigen ELISA, KDR coat 12.5 ng/mL, supernatant 1:25
Would you mind labelling by ELISA reading? At or over 0.4 is criterion met, under is criterion not met.

Solved cases below.
INSERT INTO results (binder, class_label) VALUES
  ('33E1 (antibody, V domains shown, Fully human mAb from XenoMouse hybridoma, tested as hybridoma supernatant) VH: QVQLQESGPGLVKPSQTLSLTCTVSGGSISSGDHYWSWIRQHPGKGLEWIGHIYYSGSTDYNPSLKSRVTISVDTSKNHFSLKLNSVTAADTAVYYCARTNSSSWSDWYFDLWGRGTLVTVSS VL: DIVMTQSPDSLAVSLGERATINCKSSQSILYSSNNKNYLAWYQRKPGQPPILLIHWASTRESGVPDRFSGSGSRTDFTLTISSLQAEDVAVYYCQQYFITPWTFGQGTKVEIK', 'criterion not met'),
  ('32G7 (antibody, V domains shown, Fully human mAb from XenoMouse hybridoma, tested as hybridoma supernatant) VH: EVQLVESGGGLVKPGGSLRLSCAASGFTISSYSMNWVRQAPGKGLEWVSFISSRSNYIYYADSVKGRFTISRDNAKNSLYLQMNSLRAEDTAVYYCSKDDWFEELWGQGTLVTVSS VL: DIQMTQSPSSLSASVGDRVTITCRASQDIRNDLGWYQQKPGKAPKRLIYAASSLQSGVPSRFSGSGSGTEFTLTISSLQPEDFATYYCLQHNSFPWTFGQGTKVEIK', 'criterion not met'),
  ('21H9 (antibody, V domains shown, Fully human mAb from XenoMouse hybridoma, tested as hybridoma supernatant) VH: QVPLVESGGGVVQPGRSLRLSCAASGFTFSSYGMHWVRQAPGKGLEWVAVIWYDGSNKYYADSVQGRFTISRDNSKNTLYLQMNSLRAEDTAVYYCARGVTMVRGLIIARYYYGLDVWGQGTTVTVSS VL: DIVMTQTPLSSPVTFGQPASISCRSSQSLVHSDGNTYLSWLQQRPGQPPRLLIYKISNRFFGVPDRFSGSGAGTDFTLKISRVEAEDVGLYYCMQSTQFPLTFGGGTKVEIK', 'criterion met');

Challenge: # bool: ELISA reading of 30A1 (antibody, V domains shown, Fully human mAb from XenoMouse hybridoma, tested as hybridoma supernatant) VH: QLQLQESGPGLVKPSETLSLTCTVSGGSISSPNYYWGWIRQPPGKGLEWIGTIYYSGNTFYNPSLKSRVTISVDTSKNQFSLKLSSVTAADTAVYYCATQQLVLYYFDFWGQGTLVTVSS VL: EIVLTQSPGTLSLSPGKRAALSCRASQSISSSYLAWYQQKPGQAPRLLIYGASSRATGIPDRFNGSGSGTDFTLTISRLEPEDFAVYYCQQLGSSITFGQGTRLEIK >= 0.4
Response given: criterion met

Challenge: Please tell me: is the binder 24C9 (antibody, V domains shown, Fully human mAb from XenoMouse hybridoma, tested as hybridoma supernatant) VH: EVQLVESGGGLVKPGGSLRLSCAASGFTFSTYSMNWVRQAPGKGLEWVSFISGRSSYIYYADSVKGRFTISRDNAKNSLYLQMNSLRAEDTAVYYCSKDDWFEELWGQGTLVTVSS VL: DIQMTQSPSSLSASVGDRVTITCRASQGIRNDLGWYQQKPGKAPKRLIYATFSLQSGVPSRFSGSGSGTEFTLTISSLQPEDFATYYCLQHNRYPWTFGQGTKVEIK at or over 0.4 in terms of ELISA reading?
Response given: criterion not met

Challenge: Quick check, ELISA reading >= 0.4? 30F6 (antibody, V domains shown, Fully human mAb from XenoMouse hybridoma, tested as hybridoma supernatant) VH: QVQLVESGGGVVQPGRSLRLSCAASGFTFSTYGMHWVRQAPGKGLEWVAVIWYDGSNKYYADSVKGRFTISRDNSKNTLYLQMNSLRAEDTAVYYCACSYWNDDYYYGMDVWGQGTTVTVSS VL: DIQMTQSPSSLSASVGDRVIITCRASQNISSYLIWYQQKPGKAPNLLIHTTSSLQRGVPSRFSGSGSGTDFTLTISSLQPEDFATYYCQQSYSAPLTFGGGTKVEIK
Response given: criterion not met

Challenge: Tell me whether ELISA reading is at least 0.4 here: 33D5 (antibody, V domains shown, Fully human mAb from XenoMouse hybridoma, tested as hybridoma supernatant) VH: QVQLVQSGAEVKKPGASVKVSCKASGYTFGSYDINWVRQATGQGLEWMGWMNPNSGNTGYAQKFQGRVTLTRNTSIRTVYMELSSLRSEDTAVYYCARGGYSNLGWFDPWGQGSLVTVSS VL: DIQMTQSPSSVSVSVGDRVTITCRASQGISSWLAWYQQKPGKAPKLLIYAASSLQSGVPSRFSGSGSGTDFTLTISSLQPEDFATYYCQQANSFPFTFGPGTKVDIK
Response given: criterion met

Challenge: Check if ELISA reading >= 0.4 (inclusive). Item: 24B3 (antibody, V domains shown, Fully human mAb from XenoMouse hybridoma, tested as hybridoma supernatant) VH: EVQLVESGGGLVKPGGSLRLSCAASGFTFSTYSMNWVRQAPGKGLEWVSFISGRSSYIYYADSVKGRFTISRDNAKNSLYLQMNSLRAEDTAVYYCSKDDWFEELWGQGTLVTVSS VL: DIQMTQSPSSLSASVGDRVTITCRASQGIRSDLGWYQQKPGKAPKRLIYATSSLQSGVPSRFSGSGSGTEFTLTISSLQPEDFATYYCLQHNRYPWTFGQGTKVEIK
Response given: criterion not met

Challenge: Decide: is the reported value of ELISA reading for 30D7 (antibody, V domains shown, Fully human mAb from XenoMouse hybridoma, tested as hybridoma supernatant) VH: QVPLVESGGGVVQPGRSLRLSCAASGFTFSSYGMHWVRQAPGKGLEWVAVIWYDGSNKYYADSVKGRFTISRDNSKNTLYLQMNSLRAEDTAVYYCARGVTMVRGVIIARYYYGLDVWGQGTTVTVSS VL: DIVMTQTPLSSPVTLGQPASISCRSSQSLVHSDGNTYLSWLQQRPGQPPRLLIYKISNRFFGVPDRFSGSGAGTDFTLKIGRVEAEDVGLYYCMQSTQFPLTFGGGTKVEIK equal to or greater than 0.4?
Response given: criterion met
